- ASSAYED_SYSTEM: T1, CRF2R
- T1 sequence (Q13324 whole entry, species assumed, looked up): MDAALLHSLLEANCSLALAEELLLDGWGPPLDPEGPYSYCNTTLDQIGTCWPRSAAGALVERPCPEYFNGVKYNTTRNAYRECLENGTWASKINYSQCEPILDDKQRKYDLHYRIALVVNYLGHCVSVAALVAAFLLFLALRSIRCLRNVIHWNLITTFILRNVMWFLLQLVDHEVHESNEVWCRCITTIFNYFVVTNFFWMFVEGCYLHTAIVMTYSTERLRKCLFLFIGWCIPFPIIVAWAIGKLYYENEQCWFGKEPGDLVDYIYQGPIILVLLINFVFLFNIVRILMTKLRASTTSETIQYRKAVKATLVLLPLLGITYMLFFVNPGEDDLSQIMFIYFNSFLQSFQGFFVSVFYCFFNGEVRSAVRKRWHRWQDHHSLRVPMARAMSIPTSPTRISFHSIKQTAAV
- ASSAY_PROTOCOL: cell-based or functional assay
Ends that are not written are not given here.
Provide the recorded CRF2R EC50 for the entries that follow.
Report as a plain number; the unit nM is understood.

Given ZGPPISIDVPFQLLRILIEIEKQEKEKQQATTNARILARV (C-terminal amide) [SEQ ID NO 171] , respond with its CRF2R EC50.
17.6

Given ZGPPISIDLPIFLLRKMIEIEKQEKEKQQAANNRLLLDTI (C-terminal amide) [SEQ ID NO 29] , respond with its CRF2R EC50.
16

Given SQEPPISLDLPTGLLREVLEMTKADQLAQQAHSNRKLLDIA-NH2 [SEQ ID NO 98] , respond with its CRF2R EC50.
100

Given IVLSLDVPIGLLQILLEIEKQEKEKQQAANNRLLLDTI-NH2 [SEQ ID NO 158] , respond with its CRF2R EC50.
6.37

Given ZGPPISIDLPWYLLRKMIEIEKQEKEKQQAANNRLLLDTI (C-terminal amide) [SEQ ID NO 55] , respond with its CRF2R EC50.
7.95

Given ZGPPISIDLPYQLLRKMIEIEKQEKEKQQAANNRLLLDTI (C-terminal amide) [SEQ ID NO 202] , respond with its CRF2R EC50.
8.7

Given IVLSLDVPIGLLQTLLELARTQSQRERAEQNRIIFDSV-NH2 [SEQ ID NO 160] , respond with its CRF2R EC50.
9.15

Given ZGPPISIDLPYVLLRKMIEIEKQEKEKQQAANNRLLLDTI (C-terminal amide) [SEQ ID NO 201] , respond with its CRF2R EC50.
5

Given ZGPPISIDVPTYLLRILIEIEKQEKEKQQATTNARILARV (C-terminal amide) [SEQ ID NO 169] , respond with its CRF2R EC50.
17.8
